Molecular target: Recombinant human MMP-13 (Homo sapiens)
Construct: made in house; host or cells: baculovirus / insect cells
Test: biochemical
Conditions: MMP-13 IC50(nM), fluorogenic MCA-peptide substrate, pH 7.5, room temperature
Reported IC50 values follow for various compounds
Kindly answer with a numeric value in nM, unit omitted.

O=C(C1CCN(c2ccc(S(=O)(=O)C3(C(=O)NO)CCOCC3)cc2)CC1)N1CCN(c2ccccc2F)CC1 [Example 12] = 6.7

Given item O=C(C1CCN(c2ccc(S(=O)(=O)C3(C(=O)NO)CCOCC3)cc2)CC1)N1CCN(c2ncccn2)CC1 [Example 23] , the value recorded as its IC50 is 6.4

====

Biological target: Recombinant human MMP-13 (Homo sapiens)
Construct: made in house; host or cells: baculovirus / insect cells
Test: biochemical
Settings: fluorogenic MCA-peptide substrate, pH 7.5, room temperature; read-out: MMP-13 IC50
IC50 strictly under 1 nM means 1 (yes); at 1 nM or over means 0 (no).

Here's an entry: COCCN1CCC(C(=O)NO)(S(=O)(=O)c2ccc(N3CCC(C(=O)c4ccc(CCCC(C)C)cc4)CC3)cc2)CC1 . Is its IC50 below 1 nM? 1 (yes)

Could you please tell me whether IC50 recorded for CCC(C)Cc1ccc(C(=O)C2CCN(c3ccc(S(=O)(=O)C4(C(=O)NO)CCN(CC)CC4)cc3)CC2)cc1 (stereo not drawn) is less than 1 nM? 0 (no)

Is it true that IC50 reported for CCN1CCC(C(=O)NO)(S(=O)(=O)c2ccc(N3CCC(C(=O)c4ccc(C)cc4)CC3)cc2)CC1 is less than 1 nM? 1 (yes)

Strictly below 1 nM: is that where IC50 of COCCN1CCC(C(=O)NO)(S(=O)(=O)c2ccc(N3CCC(c4ccc(Cl)cc4)CC3)cc2)CC1 sits? 1 (yes)

Lab note: confirm whether the reported IC50 for this compound is below 1 nM, equality not counting. compound: O=C(Cc1ccccc1)C1CCN(c2ccc(S(=O)(=O)C3(C(=O)NO)CCOCC3)cc2)CC1 0 (no)

For COCCN1CCC(C(=O)NO)(S(=O)(=O)c2ccc(N3CCC(C(=O)c4ccc(CC5CCC5)cc4)CC3)cc2)CC1 , is the recorded IC50 below the cut-off of 1 nM? 1 (yes)

Please let me know if COCCN1CCC(C(=O)NO)(S(=O)(=O)c2ccc(N3CCC(c4ccc(C)cc4)CC3)cc2)CC1 shows IC50 below 1 nM. 0 (no)

Please determine if O=C(NO)C1(S(=O)(=O)c2ccc(N3CCC(N4CCc5ccccc54)CC3)cc2)CCOCC1 is below 1 nM in terms of IC50. 0 (no)

Find out if reported IC50 for O=C(NO)C1(S(=O)(=O)c2ccc(N3CCC(c4ccc(Cl)cc4)CC3)cc2)CCN(C2CC2)CC1 [Example 261] is less than 1 nM 1 (yes)

Determine whether this compound shows IC50 lower than 1 nM (ties excluded): COCCN1CCC(C(=O)NO)(S(=O)(=O)c2ccc(N3CCC(C(=O)c4ccc(OC(C)C)c(C)c4)CC3)cc2)CC1 0 (no)

====

Biological target: Recombinant human MMP-2 (Homo sapiens, UniProt P08253)
Construct: made in house
Sequence (P08253 110-660): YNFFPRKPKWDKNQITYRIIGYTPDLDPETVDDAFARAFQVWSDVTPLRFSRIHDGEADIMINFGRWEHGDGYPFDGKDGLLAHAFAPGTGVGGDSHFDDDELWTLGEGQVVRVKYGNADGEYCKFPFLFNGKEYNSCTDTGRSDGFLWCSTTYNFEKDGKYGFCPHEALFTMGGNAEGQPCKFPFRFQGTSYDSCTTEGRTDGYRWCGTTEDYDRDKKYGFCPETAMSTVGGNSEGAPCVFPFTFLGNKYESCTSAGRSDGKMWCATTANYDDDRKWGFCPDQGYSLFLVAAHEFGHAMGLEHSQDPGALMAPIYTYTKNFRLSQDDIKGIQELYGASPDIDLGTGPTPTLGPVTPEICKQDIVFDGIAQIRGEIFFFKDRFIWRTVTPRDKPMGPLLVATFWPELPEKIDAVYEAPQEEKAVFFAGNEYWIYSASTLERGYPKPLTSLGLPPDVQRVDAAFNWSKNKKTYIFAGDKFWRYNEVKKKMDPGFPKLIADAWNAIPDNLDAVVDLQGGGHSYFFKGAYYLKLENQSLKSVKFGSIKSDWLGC
Assay: biochemical
Conditions: fluorogenic MCA-peptide substrate, pH 7.5, room temperature; read-out: MMP-2 IC50
Reported log10 of IC50 is given for each of the following molecules.
Annotation: log10 of IC50, nM basis.

O=C(C1CCN(c2ccc(S(=O)(=O)C3(C(=O)NO)CCOCC3)cc2)CC1)N1CCN(CCO)CC1 = 3.78
CC(C)COc1ccc(C(=O)C2CCN(c3ccc(S(=O)(=O)C4(C(=O)NO)CCN(C5CC5)CC4)cc3)CC2)cc1 = 1.67
CCOC(=O)CN1CCN(C(=O)C2CCN(c3ccc(S(=O)(=O)C4(C(=O)NO)CCOCC4)cc3)CC2)CC1 = 3.43
CC(C)Oc1ccc(C(=O)C2CCN(c3ccc(S(=O)(=O)C4(C(=O)NO)CCN(C5CC5)CC4)cc3)CC2)cc1 = 1.36
Cc1ccc(C(=O)C2CCN(c3ccc(S(=O)(=O)C4(C(=O)NO)CCN(S(C)(=O)=O)CC4)cc3)CC2)cc1 = 0.64

get_value(item= CCN1CCC(C(=O)NO)(S(=O)(=O)c2ccc(N3CCC(C(=O)c4ccc(Cl)c(C)c4)CC3)cc2)CC1 , readout=log10 of IC50) returns 2.48

Lab note: CCCCOc1ccc(C(=O)C2CCN(c3ccc(S(=O)(=O)C4(C(=O)NO)CCOCC4)cc3)CC2)cc1 gave log10 of IC50 of 3.26

Quick note, log10 of IC50 for O=C(c1ccc(Cl)cc1)C1CCN(c2ccc(S(=O)(=O)C3(C(=O)NO)CCN(C4CC4)CC3)cc2)CC1 landed at 1.41

Measured log10 of IC50 of CCC(C)Cc1ccc(C(=O)C2CCN(c3ccc(S(=O)(=O)C4(C(=O)NO)CCOCC4)cc3)CC2)cc1 (stereo not shown) : 3.12

Per the records, this molecule ( COCCN1CCC(C(=O)NO)(S(=O)(=O)c2ccc(N3CCC(C(=O)c4ccc(CCC5CCCC5)cc4)CC3)cc2)CC1 ) has log10 of IC50 equal to 3.02

Reported log10 of IC50 for C=CCN1CCC(C(=O)NO)(S(=O)(=O)c2ccc(N3CCC(C(=O)c4ccc(NC)cc4)CC3)cc2)CC1 was 2.37

Reported log10 of IC50 of CCC(CC)Cc1ccc(C(=O)C2CCN(c3ccc(S(=O)(=O)C4(C(=O)NO)CCN(CCOC)CC4)cc3)CC2)cc1 : 2.87

What the record says about O=C(c1ccco1)N1CCN(C(=O)C2CCN(c3ccc(S(=O)(=O)C4(C(=O)NO)CCOCC4)cc3)CC2)CC1 : log10 of IC50 is 3.54

log10 of IC50 reading for CCN1CCC(C(=O)NO)(S(=O)(=O)c2ccc(N3CCC(C(=O)c4ccc(N(C)C)cc4)CC3)cc2)CC1 : 3.34

Per the records, this molecule ( O=C(Cc1ccccc1)C1CCN(c2ccc(S(=O)(=O)C3(C(=O)NO)CCOCC3)cc2)CC1 ) has log10 of IC50 equal to 3.28

Item: COCCN1CCC(C(=O)NO)(S(=O)(=O)c2ccc(N3CCC(C(=O)c4ccc(OCCC5CCCCC5)cc4)CC3)cc2)CC1 | log10 of IC50: 2.19

log10 of IC50 in this record for COCCN1CCC(C(=O)NO)(S(=O)(=O)c2ccc(N3CCC(C(=O)c4ccc(OC(C)C)c(F)c4)CC3)cc2)CC1 : 2.03

GET /value?item= O=C(c1ccc(CCC2CCCC2)cc1)C1CCN(c2ccc(S(=O)(=O)C3(C(=O)NO)CCOCC3)cc2)CC1 &field=log10 of IC50 returns 2.81

====

Target: Recombinant human MMP-13 (Homo sapiens, UniProt P45452)
Construct: made in house; host or cells: baculovirus / insect cells
Test: biochemical
Details: fluorogenic MCA-peptide substrate, pH 7.5, room temperature; read-out: MMP-13 IC50
reported.endpoint: IC50 (nM)
Write the answer as a number in nM, unit excluded.

CCCc1ccc(C(=O)C2CCN(c3ccc(S(=O)(=O)C4(C(=O)NO)CCN(CC)CC4)cc3)CC2)cc1 [Example 170] = 1.3
C#CCN1CCC(C(=O)NO)(S(=O)(=O)c2ccc(N3CCC(C(=O)c4cccc(OC)c4)CC3)cc2)CC1 [Example 155] = 1.4
CC(C)CCOc1ccc(C(=O)C2CCN(c3ccc(S(=O)(=O)C4(C(=O)NO)CCN(C5CC5)CC4)cc3)CC2)cc1 [Example 217] = 1.3

Noted for Cc1cc(C(=O)C2CCN(c3ccc(S(=O)(=O)C4(C(=O)NO)CCN(C5CC5)CC4)cc3)CC2)ccc1Cl [Example 214] : its IC50 reads 1.7

# IC50 (compound: CCc1ccc(C(=O)C2CCN(c3ccc(S(=O)(=O)C4(C(=O)NO)CCN(CC)CC4)cc3)CC2)cc1 [Example 222] ) is 1

The measured IC50 associated with O=C(c1ccc(CC2CCCC2)cc1)C1CCN(c2ccc(S(=O)(=O)C3(C(=O)NO)CCN(C4CC4)CC3)cc2)CC1 [Example 197] reads 1.4

IC50 reading for C=CCN1CCC(C(=O)NO)(S(=O)(=O)c2ccc(N3CCC(C(=O)c4ccc(OC)cc4)CC3)cc2)CC1 [Example 182] : 1.1

====

Target: Recombinant human MMP-13 (Homo sapiens)
Construct: made in house; host or cells: baculovirus / insect cells
Test: biochemical
Conditions: fluorogenic MCA-peptide substrate, pH 7.5, room temperature; read-out: MMP-13 IC50
# note: boundary value 1 nM maps to No; IC50 below it maps to Yes

In plain terms, does CCC(C)Cc1ccc(C(=O)C2CCN(c3ccc(S(=O)(=O)C4(C(=O)NO)CCN(CCOC)CC4)cc3)CC2)cc1 (centres unmarked) come in under 1 nM for IC50? Yes

Does this compound meet the criterion IC50 < 1 nM? COCCN1CCC(C(=O)NO)(S(=O)(=O)c2ccc(N3CCC(C(=O)c4ccc(CO)cc4)CC3)cc2)CC1 No

Does the reported IC50 of COc1ccccc1N1CCN(C(=O)C2CCN(c3ccc(S(=O)(=O)C4(C(=O)NO)CCOCC4)cc3)CC2)CC1 stay below 1 nM? No

Item O=C(c1ccc(CN2CCCC2)cc1)C1CCN(c2ccc(S(=O)(=O)C3(C(=O)NO)CCOCC3)cc2)CC1 : IC50 beneath 1 nM, strictly? No

For this compound, is IC50 lower than 1 nM? COCCN1CCC(C(=O)NO)(S(=O)(=O)c2ccc(N3CCC(c4ccc(OC)cc4)CC3)cc2)CC1 Yes

Consider the compound COCCN1CCC(C(=O)NO)(S(=O)(=O)c2ccc(N3CCC(C(=O)c4ccc(COCC5CC5)cc4)CC3)cc2)CC1 . Is its IC50 strictly less than 1 nM? Yes

Does the reported IC50 of the following compound sit strictly below 1 nM? CCN1CCC(C(=O)NO)(S(=O)(=O)c2ccc(N3CCC(C(=O)c4ccc(CCC(C)O)cc4)CC3)cc2)CC1 (centres unmarked) Yes

Lab note: confirm whether the reported IC50 for this compound is below 1 nM, equality not counting. compound: O=C(c1ccc(CC2CCCCC2)cc1)C1CCN(c2ccc(S(=O)(=O)C3(C(=O)NO)CCN(C4CC4)CC3)cc2)CC1 No

Quick check: IC50 of CCN1CCC(C(=O)NO)(S(=O)(=O)c2ccc(N3CCC(C(=O)c4ccc(CC(C)CO)cc4)CC3)cc2)CC1 (centres unmarked) under 1 nM? Yes

Hello, I'm reviewing records and need to know if IC50 of O=C(NO)C1(S(=O)(=O)c2ccc(N3CCC(SCc4ccccc4Cl)CC3)cc2)CCN(C2CC2)CC1 is below 1 nM. Could you check? No

A record lists CCOC(=O)CN1CCN(C(=O)C2CCN(c3ccc(S(=O)(=O)C4(C(=O)NO)CCOCC4)cc3)CC2)CC1 . Is its IC50 below 1 nM? No

Does this compound meet the criterion IC50 < 1 nM? CCC(C)Cc1ccc(C(=O)C2CCN(c3ccc(S(=O)(=O)C4(C(=O)NO)CCOCC4)cc3)CC2)cc1 (centres unmarked) Yes

Decide: IC50 of C=CCN1CCC(C(=O)NO)(S(=O)(=O)c2ccc(N3CCC(C(=O)c4ccc(Cl)cc4)CC3)cc2)CC1 strictly below 1 nM? Yes

Just wondering, is IC50 of O=C(Cc1cccs1)C1CCN(c2ccc(S(=O)(=O)C3(C(=O)NO)CCOCC3)cc2)CC1 below 1 nM? No

Say whether its IC50 is strictly beneath 1 nM. Entry: C#CCN1CCC(C(=O)NO)(S(=O)(=O)c2ccc(N3CCC(C(=O)c4ccc(Cl)cc4)CC3)cc2)CC1 Yes

Check if IC50 falls below 1 nM for O=C(c1ccc(CCC2CCCC2)cc1)C1CCN(c2ccc(S(=O)(=O)C3(C(=O)NO)CCOCC3)cc2)CC1 . No

Is IC50 of Cc1ccc(C(=O)C2CCN(c3ccc(S(=O)(=O)C4(C(=O)NO)CCN(S(C)(=O)=O)CC4)cc3)CC2)cc1C strictly below 1 nM? No

IC50 under 1 nM? Item: CCN1CCC(C(=O)NO)(S(=O)(=O)c2ccc(N3CCC(C(=O)c4ccc(CC5CCC5)cc4)CC3)cc2)CC1 [Example 195] Yes
